The reported numbers originate from PubChem BioAssay.

Listing: nuclei count of selected compounds
Assay: endothelial E-selectin expression blockers – imaging, HUVEC, immunofluorescence, MLSMR starter and 10KST1 sets, primary screen (AID 487);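 note: 100% = median nuclei count of all wells on the same plate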
Details: HUVEC TNFalpha-induced E-selectin immunofluorescence imaging, at 2 µM; measured here: cell number, toxicity
Record the result as number plus unit.

Study these solved cases before continuing.
{"columns": ["Compound", "Obs Value"],
 "data": [
  ["COc1ccc(CCn2c(N)c(C#N)c3nc4ccccc4nc32)cc1OC", "150%"],
  ["O=C(O)C1C2CCC(O2)C1C(=O)Nc1cccc(F)c1 (stereo not given)", "104%"],
  ["O=S(=O)(c1ccccc1)N1CCN(C2CCCCCCC2)CC1", "148%"],
  ["CCOc1ccc2c(c1)sc1nc(C(=O)OC)cc(=O)n12", "108%"],
  ["CCCCC(c1nnnn1C1CCCC1)N1CCN(C2CCCCC2)CC1 (stereo not given)", "111%"]
]}

// query nuclei count value for entry COc1ccccc1NC(=O)C1=C(C)Nc2ncnn2C1c1ccc(C)o1 (stereo not given)
85.1%

Requested read-out: nuclei count. Entry: COc1cc(C)nc(NS(=O)(=O)c2ccc(C)cc2)n1
109%

* * *

Biological target: Voltage-gated potassium channel subunit beta-2 (Rattus norvegicus)
Test: enhancers of rat Kvbeta2 NADPH turnover – biochemical, NADPH fluorescence, primary screen (AID 623);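 note: fluorescence intensity change per second fitted from 20 to 320 s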
Conditions: Recombinant KvBeta, NADPH fluorescence decrease slope, 10 min; at 10 µM; stronger effect = lower value
Measured Endpoint: NADPH fluorescence slope
When you answer, write just the number.

Solved cases below.
{"columns": ["Molecule", "NADPH fluorescence slope"],
 "data": [
  ["CC(C)NC(=O)NC(=O)COc1cccc2c1OC(C)(C)C2", "-2.9e-05"],
  ["COCCN(Cc1ccccc1)P(=O)(O)c1ccccc1OCC(=O)O", "-4.4e-05"],
  ["CCNC(=O)Cn1cnc2c1c(=O)n(C)c(=O)n2C", "7.5e-06"],
  ["CCCN(CCC)C(=O)CSc1nc2ccccc2c(=O)n1C1CCCC1", "-1.1e-05"],
  ["Cc1ccc(-c2cc(C(F)(F)F)n3ncc(C(=O)O)c3n2)cc1", "-3.4e-05"],
  ["NC(=O)C1(N2CCCCC2)CCN(C2CC(=O)N(Cc3cccs3)C2=O)CC1 (configuration not stated)", "-3.2e-05"],
  ["COc1cc(C(=O)N2c3ccccc3CC2C)cc(OC)c1OC (configuration not stated)", "-2.6e-05"],
  ["O=C(CCn1nc(-c2ccccc2)ccc1=O)N1CCCC1", "-2e-05"]
]}

For the molecule shown here, CCOC(=O)c1sc(N2C(=O)C(O)=C(C(=O)c3ccco3)C2c2ccccc2)nc1C (configuration not stated) , give the reported NADPH fluorescence slope.
-5.7e-05

Need NADPH fluorescence slope, item N#Cc1cnc(SCC(=O)Nc2ccccc2C(F)(F)F)nc1N
5.4e-05

What NADPH fluorescence slope value was documented for this molecule, Oc1c(I)cc(Cl)c2cccnc12 ?
-3.6e-05

For the molecule COc1ccc2c(c1OC)C(=O)OC2Nn1cncn1 (configuration not stated) , what NADPH fluorescence slope is on record?
1.7e-05

* * *

Assay: inhibitors of TNFa-induced NFkB p65 translocation, primary screen, imaging, HUVEC, MLSMR starter and 10KST1 sets (AID 438);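 note: compound added about 3h40 before a 20 min TNFalpha stimulation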
Details: HUVEC TNFa-induced p65 nuclear translocation; measured here: nuclei count (cytotoxicity indicator), at 2.08 µM
Measured Endpoint: cell count
The reply should be a number, written without any unit.

Observe how each entry below is paired with its result.
{"columns": ["Compound", "Obs Value"],
 "data": [
  ["O=C(O)c1cc2c([nH]c1=O)CCCC2", 661],
  ["CCc1nnc(NC(=O)OCc2ccccc2)s1", 414],
  ["Cc1ccc(S(=O)(=O)Cc2ccc(C(=O)NCc3ccc4c(c3)OCO4)o2)cc1", 592]
]}

Consider the compound COCCNC(=O)c1ccc(Cl)c(Cl)c1 and give its measured cell count.
283

Which cell count reading was recorded for the compound CCn1cc(C(=O)NCCN(C)CCc2ccccc2)c(=O)c2cc(S(=O)(=O)N(C)C)ccc21 ?
543

So what does the record say about cell count for COc1cccc(CNC(=O)CCn2c(=O)oc3ccccc32)c1 ?
277

Report cell count for Cc1ccc(CSc2nc3c(c(=O)[nH]2)C(c2ccncc2)C2=C(CCCC2=O)N3)cc1 (stereo unspecified) please.
518

Data request, read-out cell count, for COc1ccc(CCn2c(N)c(C#N)c3nc4ccccc4nc32)cc1OC
397

Request the reported cell count associated with CCOC(=O)Nc1sc(=S)n(C)c1C
719

Need cell count of O=c1c2c(nc3nc(CCc4ccccc4)[nH]n13)CCC2 , thanks.
344

Item Oc1ccc(N2CCN(C(c3cccnc3)c3nnnn3Cc3ccccc3)CC2)cc1 (stereo unspecified) has what recorded cell count?
612
